Taken from patent US12479830B2.

For each of the compounds below, state its Ki.
- assay system: Human α2δ-1 subunit of Cav2.2 calcium channel (Homo sapiens, UniProt P54289)
- Sequence (P54289 25-1103): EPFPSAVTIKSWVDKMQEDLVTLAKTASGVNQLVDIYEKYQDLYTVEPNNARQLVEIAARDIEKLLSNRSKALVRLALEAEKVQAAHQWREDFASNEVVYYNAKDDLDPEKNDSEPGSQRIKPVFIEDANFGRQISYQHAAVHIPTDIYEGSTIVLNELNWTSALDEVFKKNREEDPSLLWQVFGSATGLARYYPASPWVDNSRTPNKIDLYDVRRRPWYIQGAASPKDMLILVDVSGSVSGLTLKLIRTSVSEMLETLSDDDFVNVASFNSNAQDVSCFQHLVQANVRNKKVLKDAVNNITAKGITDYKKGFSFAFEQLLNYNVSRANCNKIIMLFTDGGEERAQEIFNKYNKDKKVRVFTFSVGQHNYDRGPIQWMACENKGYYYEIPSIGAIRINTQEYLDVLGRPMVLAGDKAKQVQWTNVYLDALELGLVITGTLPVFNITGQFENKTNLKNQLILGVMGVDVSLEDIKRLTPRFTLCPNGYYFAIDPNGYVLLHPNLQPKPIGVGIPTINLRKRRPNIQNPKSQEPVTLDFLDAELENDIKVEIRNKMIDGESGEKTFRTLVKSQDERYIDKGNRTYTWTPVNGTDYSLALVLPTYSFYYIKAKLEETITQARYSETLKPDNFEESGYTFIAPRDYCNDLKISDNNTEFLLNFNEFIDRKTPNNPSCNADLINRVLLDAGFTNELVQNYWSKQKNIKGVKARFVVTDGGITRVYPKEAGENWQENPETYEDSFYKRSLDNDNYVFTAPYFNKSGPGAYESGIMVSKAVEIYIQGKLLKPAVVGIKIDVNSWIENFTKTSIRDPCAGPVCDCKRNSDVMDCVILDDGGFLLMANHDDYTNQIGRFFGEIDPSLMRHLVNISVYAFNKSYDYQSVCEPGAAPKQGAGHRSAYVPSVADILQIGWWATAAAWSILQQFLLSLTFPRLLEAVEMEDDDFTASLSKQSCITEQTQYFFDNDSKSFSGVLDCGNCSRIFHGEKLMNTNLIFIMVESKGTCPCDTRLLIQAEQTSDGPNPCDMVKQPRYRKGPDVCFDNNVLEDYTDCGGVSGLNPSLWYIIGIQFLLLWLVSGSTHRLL
- assay name: Human α2δ-1 subunit of Cav2.2 calcium channel assay ([3H]-gabapentin binding)
- condition description: binding to the α2δ-1 subunit of voltage-gated calcium channels, expressed as Ki class; + also covers inhibition between 1% and 50%
- Method: Human α2δ-1 Subunit of Cav2.2 Calcium Channel Assay Human α2δ-1 enriched membranes (2.5 μg) were incubated with 15 nM of radiolabeled [^3H]-Gabapentin in assay buffer containing Hepes-KOH 10 mM. pH 7.4. NSB (non specific binding) was measured by adding 10 μM pregabalin. […] Filter plates were dried at 60° C. for 1 h and 30 μL of scintillation cocktail were added to each well before radioactivity reading. Readings were performed in a Trilux 1450 Microbeta radioactive counter (Perkin Elmer).

Some solved cases for reference:
compound: CCC[C@H](c1nc2cc(F)c(Br)cc2c(=O)n1CC)N1CCNC[C@H](C)C1
assay system: Human α2δ-1 subunit of Cav2.2 calcium channel (Homo sapiens, UniProt P54289)
Ki: < 500 nM
--
compound: CCC[C@@H](c1nc2cc(Cl)c(Cl)cc2c(=O)n1CC)N1CCNC[C@@H](C)C1
assay system: Human α2δ-1 subunit of Cav2.2 calcium channel (Homo sapiens, UniProt P54289)
Ki: > 5000 nM

Can you look up the measured Ki of CCCC(c1nc2ccc(F)cc2c(=O)n1CC)C1CCCN(CC)CC1 (stereo not drawn) for me?
500 to 5000 nM
